Tested on: U2OS
Test: Multiplex assay against U2OS
Type: toxicity, cell-based
Conditions: human, 48 h, 1 µM, compound concentration 1 uM, replicate 2
Label scheme for Population Hoechst High Intensity Objects (%): lower than 6% is condition not met, 6% and above is condition met.

given_smiles=COc1ncc(-c2ccc3nccc(-c4ccnnc4)c3c2)cc1NS(=O)(=O)c1ccc(F)cc1F cat="condition met"
given_smiles=OC1(c2ccc(Cl)cc2)CCN(Cc2c[nH]c3ccccc23)CC1 cat="condition not met"
given_smiles=CC(C)(O)CNc1ncc(-c2ccnc(Nc3ccnc(Cl)c3)n2)c(CC2CC2)n1 cat="condition not met"
given_smiles=Cc1csc2c(N[C@@H](C)CN3CCN(S(=O)(=O)c4ccc(Cl)c(Cl)c4)CC3)ncnc12 cat="condition not met"
given_smiles=CC[C@H](C)C(=O)O[C@H]1C[C@@H](C)C=C2C=C[C@H](C)[C@H](CC[C@@H]3C[C@@H](O)CC(=O)O3)[C@H]21 cat="condition met"
given_smiles=COc1cc(-n2cnc3cc(-c4ccc(Cl)cc4)sc3c2=O)ccc1OCCN1CCCC1 cat="condition not met"
given_smiles=Cc1[nH]c(/C=C2\C(=O)Nc3ccc(S(=O)(=O)N(C)c4cccc(Cl)c4)cc32)c(C)c1C(=O)N1CCN(C)CC1 cat="condition met"
given_smiles=CNc1nc(NCc2ccc(NS(C)(=O)=O)cc2Cl)cc(-c2ccccn2)n1 cat="condition not met"
given_smiles=Cc1nc(-c2ccc(-c3ccc(C(=O)N4CCc5cc6c(cc54)C4(CCN(C)CC4)CO6)cc3)c(C)c2)no1 cat="condition met"

----------
Test system: HEK-293T
Experiment: Multiplex assay against HEK293T
Type: toxicity, cell-based
Details: human, 24 h, 1 µM, compound concentration 1 uM, replicate 2
attribute_measured: Population Pyknosed Nuclei (%)

molecule="C[C@@H](NCCCc1cccc(C(F)(F)F)c1)c1cccc2ccccc12.Cl [CINACALCET HYDROCHLORIDE]" attribute_measured="Population Pyknosed Nuclei (%)" measured=43
molecule="Cl.N#Cc1ccc2[nH]cc(CCCCN3CCN(c4ccc5oc(C(N)=O)cc5c4)CC3)c2c1 [VILAZODONE HYDROCHLORIDE]" attribute_measured="Population Pyknosed Nuclei (%)" measured=50
molecule=Cc1csc2c(N[C@@H](C)CN3CCN(S(=O)(=O)c4ccc(Cl)c(Cl)c4)CC3)ncnc12 attribute_measured="Population Pyknosed Nuclei (%)" measured=61
molecule="CC(C)NCC(O)COc1ccc(CCOCC2CC2)cc1.Cl (stereo not given) [BETAXOLOL HYDROCHLORIDE]" attribute_measured="Population Pyknosed Nuclei (%)" measured=29
molecule="Cc1nc(-c2cn3c(n2)-c2ccc(-c4cnn(C(C)(C)C(N)=O)c4)cc2OCC3)n(C(C)C)n1 [TASELISIB]" attribute_measured="Population Pyknosed Nuclei (%)" measured=11

----------
Total Cell Count by entry:
Tested on: Fibroblast
Experiment: Multiplex assay against human fibroblast
Assay type: toxicity, cell-based
Details: 48 h, 10 µM, compound concentration 10 uM, replicate 1
attribute_measured: Total Cell Count

molecule=Cn1cc(-c2[nH]c3cc(NC(=O)[C@H](N)C4CCCCC4)cc4c3c2C=NNC4=O)cn1 target=Fibroblast attribute_measured="Total Cell Count" measured=251
molecule=CCOCCn1cc(C(=O)Nc2ccc(-n3nc(-c4cccnc4)cc3C(F)(F)F)cn2)ccc1=O target=Fibroblast attribute_measured="Total Cell Count" measured=90
molecule="Cl.N#Cc1ccc2[nH]cc(CCCCN3CCN(c4ccc5oc(C(N)=O)cc5c4)CC3)c2c1 [VILAZODONE HYDROCHLORIDE]" target=Fibroblast attribute_measured="Total Cell Count" measured=230
molecule=CN1CCN(c2ccc(OC(F)(F)F)c(Nc3ncc4c(n3)-c3c(c(C(N)=O)nn3CCO)CC4)c2)CC1 target=Fibroblast attribute_measured="Total Cell Count" measured=136
molecule=COc1cc(-n2cnc3cc(-c4ccc(Cl)cc4)sc3c2=O)ccc1OCCN1CCCC1 target=Fibroblast attribute_measured="Total Cell Count" measured=124
molecule=Cc1csc2c(N[C@@H](C)CN3CCN(S(=O)(=O)c4ccc(Cl)c(Cl)c4)CC3)ncnc12 target=Fibroblast attribute_measured="Total Cell Count" measured=104
molecule=Cc1cc(C)cc(-c2cnc3cc(Cl)c(-c4cccc(O)c4)cc3c2OCCCN)c1 target=Fibroblast attribute_measured="Total Cell Count" measured=157

----------
Tested on: HEK-293T
Assay: Multiplex assay against HEK293T
Type: toxicity, cell-based
Conditions: human, 24 h, 1 µM, compound concentration 1 uM, replicate 1
attribute_measured: Population Healthy Nuclei (%)

molecule=CC(C)(O)CNc1ncc(-c2ccnc(Nc3ccnc(Cl)c3)n2)c(CC2CC2)n1 target=HEK-293T value_units=% measured=28
molecule=CCN(CC)CCCCNc1ncc2cc(-c3cc(OC)cc(OC)c3)c(NC(=O)NC(C)(C)C)nc2n1 target=HEK-293T value_units=% measured=6
molecule=CN(C)C(=O)/C(C#N)=C/c1ccc(-c2nc3cnc4[nH]ccc4c3n2C2CCCCC2)o1 target=HEK-293T value_units=% measured=45
molecule=c1cn2cc(-c3ccc4cn[nH]c4c3)nc(Nc3ccc(N4CCOCC4)cc3)c2n1 target=HEK-293T value_units=% measured=52
molecule=CN(C)CC#Cc1ccc(OCCCc2sc(N3CCc4cccc(C(=O)Nc5nc6ccccc6s5)c4C3)nc2C(=O)O)c(F)c1 target=HEK-293T value_units=% measured=38
molecule="CN(C)C(=O)N[C@H]1CC[C@H](CCN2CCN(c3cccc(Cl)c3Cl)CC2)CC1.Cl [CARIPRAZINE HYDROCHLORIDE]" target=HEK-293T value_units=% measured=57
molecule=Cn1cc(-c2[nH]c3cc(NC(=O)[C@H](N)C4CCCCC4)cc4c3c2C=NNC4=O)cn1 target=HEK-293T value_units=% measured=20
molecule=Cc1cc(C)cc(-c2cnc3cc(Cl)c(-c4cccc(O)c4)cc3c2OCCCN)c1 target=HEK-293T value_units=% measured=26

----------
Tested on: HEK-293T
Experiment: Multiplex assay against HEK293T
Format: toxicity, cell-based
Conditions: human, 24 h, 10 µM, compound concentration 10 uM, replicate 2
Cut-off 30% on Population Mitotic Cells (%), inclusive. At or above means Y; below means N.

compound="COc1ncc(-c2ccc3nccc(-c4ccnnc4)c3c2)cc1NS(=O)(=O)c1ccc(F)cc1F [OMIPALISIB]" cat=Y
compound=Cc1cc(C)cc(-c2cnc3cc(Cl)c(-c4cccc(O)c4)cc3c2OCCCN)c1 cat=N
compound="COc1cccc([C@@H](C)NCCCc2ccccc2Cl)c1.Cl [TECALCET HYDROCHLORIDE]" cat=Y
compound=Cn1cc(-c2[nH]c3cc(NC(=O)[C@H](N)C4CCCCC4)cc4c3c2C=NNC4=O)cn1 cat=N
compound="CN1CCCC(n2nc(Cc3ccc(Cl)cc3)c3ccccc3c2=O)CC1.Cl (stereo not drawn) [AZELASTINE HYDROCHLORIDE]" cat=N
compound=C=CC(=O)Nc1cccc(C(=O)Nc2ccc(Nc3cc(-c4[nH]c(SC)nc4C)ccn3)cc2)c1 cat=Y
compound="CC[C@H](C)C(=O)O[C@H]1C[C@@H](C)C=C2C=C[C@H](C)[C@H](CC[C@@H]3C[C@@H](O)CC(=O)O3)[C@H]21 [LOVASTATIN]" cat=Y
compound="Cc1nc(-c2ccc(-c3ccc(C(=O)N4CCc5cc6c(cc54)C4(CCN(C)CC4)CO6)cc3)c(C)c2)no1 [SB-224289]" cat=N

----------
System: HEK-293T
Assay: Multiplex assay against HEK293T
Assay type: toxicity, cell-based
Details: human, 24 h, 1 µM, compound concentration 1 uM, replicate 2
attribute_measured: Total Cell Count

compound=Cc1csc2c(N[C@@H](C)CN3CCN(S(=O)(=O)c4ccc(Cl)c(Cl)c4)CC3)ncnc12 measured=131
compound=Cn1cc(-c2[nH]c3cc(NC(=O)[C@H](N)C4CCCCC4)cc4c3c2C=NNC4=O)cn1 measured=263
compound=C=CC(=O)Nc1cccc(C(=O)Nc2ccc(Nc3cc(-c4[nH]c(SC)nc4C)ccn3)cc2)c1 measured=227
compound=CCN(CC)CCCCNc1ncc2cc(-c3cc(OC)cc(OC)c3)c(NC(=O)NC(C)(C)C)nc2n1 measured=891
compound=c1cn2cc(-c3ccc4cn[nH]c4c3)nc(Nc3ccc(N4CCOCC4)cc3)c2n1 measured=259
compound=CN(C)C(=O)/C(C#N)=C/c1ccc(-c2nc3cnc4[nH]ccc4c3n2C2CCCCC2)o1 measured=239
compound=C[C@@]1(C(=O)Nc2ccc(F)nc2)CCCN1c1nc(Nc2cc(C3CC3)n[nH]2)c2cccn2n1 measured=865
compound="CN(C)C(=O)N[C@H]1CC[C@H](CCN2CCN(c3cccc(Cl)c3Cl)CC2)CC1.Cl [CARIPRAZINE HYDROCHLORIDE]" measured=275
compound="C=CC(=O)Nc1cc2c(Nc3ccc(F)c(Cl)c3)ncnc2cc1OCCCN1CCOCC1.Cl.Cl [CANERTINIB DIHYDROCHLORIDE]" measured=910
compound=CN1CCN(c2ccc(OC(F)(F)F)c(Nc3ncc4c(n3)-c3c(c(C(N)=O)nn3CCO)CC4)c2)CC1 measured=122
compound=Cc1nc(Nc2n[nH]c3c2CN(C(=O)N[C@H](CN(C)C)c2ccccc2)C3(C)C)c2sccc2n1 measured=1640
compound=COc1cc(-n2cnc3cc(-c4ccc(Cl)cc4)sc3c2=O)ccc1OCCN1CCCC1 measured=325
compound="Cl.N#Cc1ccc2[nH]cc(CCCCN3CCN(c4ccc5oc(C(N)=O)cc5c4)CC3)c2c1 [VILAZODONE HYDROCHLORIDE]" measured=165
compound=COc1ncc(-c2ccc3nccc(-c4ccnnc4)c3c2)cc1NS(=O)(=O)c1ccc(F)cc1F measured=178
compound="CN1CCCC(n2nc(Cc3ccc(Cl)cc3)c3ccccc3c2=O)CC1.Cl (stereo unspecified) [AZELASTINE HYDROCHLORIDE]" measured=223
compound=Cc1nc(-c2cn3c(n2)-c2ccc(-c4cnn(C(C)(C)C(N)=O)c4)cc2OCC3)n(C(C)C)n1 measured=810
